Biological target: T1, extracellular domain of canine IL-31RA fused to murine IgG2A Fc (canine)
T1 construct: also called Canine IL-31RA-murine IgG2A Fc; Canine IL-31RA-mFc
T1 chain: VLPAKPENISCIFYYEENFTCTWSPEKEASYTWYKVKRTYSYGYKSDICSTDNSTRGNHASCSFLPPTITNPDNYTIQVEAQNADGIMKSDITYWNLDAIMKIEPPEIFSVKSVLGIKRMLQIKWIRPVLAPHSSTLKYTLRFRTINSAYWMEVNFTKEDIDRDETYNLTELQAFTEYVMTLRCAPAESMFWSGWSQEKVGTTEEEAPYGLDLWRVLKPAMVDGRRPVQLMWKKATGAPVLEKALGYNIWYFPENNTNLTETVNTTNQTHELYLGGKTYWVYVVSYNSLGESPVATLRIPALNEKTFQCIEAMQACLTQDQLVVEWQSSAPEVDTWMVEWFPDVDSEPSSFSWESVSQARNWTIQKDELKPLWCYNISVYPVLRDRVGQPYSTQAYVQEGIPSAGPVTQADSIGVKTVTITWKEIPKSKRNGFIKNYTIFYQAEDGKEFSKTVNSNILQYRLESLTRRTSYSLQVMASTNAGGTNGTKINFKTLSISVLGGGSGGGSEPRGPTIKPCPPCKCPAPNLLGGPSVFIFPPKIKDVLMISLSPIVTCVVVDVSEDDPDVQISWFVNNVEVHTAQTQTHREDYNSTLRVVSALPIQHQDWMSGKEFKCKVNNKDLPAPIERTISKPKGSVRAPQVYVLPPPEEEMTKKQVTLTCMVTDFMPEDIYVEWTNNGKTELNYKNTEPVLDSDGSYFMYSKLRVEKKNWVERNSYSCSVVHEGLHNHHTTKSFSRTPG
Test: SPR Biacore T200, antibody captured on anti-dog H+L chip, canine IL-31RA-mFc as analyte; relative affinity scale: *** 3 pM-100 pM, ** 101 pM-1 nM, * 1.1 nM-20 nM (avidity)
Assay endpoint: relative affinity (apparent KD by SPR)

Known results for binders:
109-49 heavy chain W53Y variant with wild-type light chain (antibody, V domains shown, Canine IgGB/kappa; signal peptides left out; also called W53Y / Wild-type) VH: EVQLVESGGDLVKPGGSLRLSCVASGFTFDDYGMSWVRQAPGKGLQWVSGINYAGGTIGYADAVKGRFTISRDNARNTVYLQMNSLRAEDTAVYYCARESPLRLGDLGGDYFYYYYYMDVWGQGTLVTVSS VL: EVVMIQTPLSLSVSPGEPASISCRASQSVSSRYLVWYLQKPGQSPQLLIYGTSSRATGVSDRFSGSGSGTDFTLRISRVEAEDVGVYYCQQYDNSPRTFGQGTKVEIKR | 1.1 to 20 nM
109-49 heavy chain M118I variant with light chain N94Q variant (antibody, V domains shown, Canine IgGB/kappa; signal peptides left out; also called M118I / N94Q) VH: EVQLVESGGDLVKPGGSLRLSCVASGFTFDDYGMSWVRQAPGKGLQWVSGINWAGGTIGYADAVKGRFTISRDNARNTVYLQMNSLRAEDTAVYYCARESPLRLGDLGGDYFYYYYYIDVWGQGTLVTVSS VL: EVVMIQTPLSLSVSPGEPASISCRASQSVSSRYLVWYLQKPGQSPQLLIYGTSSRATGVSDRFSGSGSGTDFTLRISRVEAEDVGVYYCQQYDQSPRTFGQGTKVEIKR | 0.003 to 0.1 nM

Let's switch to this binder now.
Fill blank: measured relative affinity (apparent KD by SPR) of the binder 109-49 heavy chain W53F + M118I variant with light chain N94Q variant (antibody, V domains shown, Canine IgGB/kappa; signal peptides left out; also called W53F-M118I / N94Q) VH: EVQLVESGGDLVKPGGSLRLSCVASGFTFDDYGMSWVRQAPGKGLQWVSGINFAGGTIGYADAVKGRFTISRDNARNTVYLQMNSLRAEDTAVYYCARESPLRLGDLGGDYFYYYYYIDVWGQGTLVTVSS VL: EVVMIQTPLSLSVSPGEPASISCRASQSVSSRYLVWYLQKPGQSPQLLIYGTSSRATGVSDRFSGSGSGTDFTLRISRVEAEDVGVYYCQQYDQSPRTFGQGTKVEIKR is ____. 1.1 to 20 nM
